Target: NPP1 (ectonucleotide pyrophosphatase/phosphodiesterase family member 1) (Homo sapiens, UniProt P22413)
Sequence (P22413 whole entry): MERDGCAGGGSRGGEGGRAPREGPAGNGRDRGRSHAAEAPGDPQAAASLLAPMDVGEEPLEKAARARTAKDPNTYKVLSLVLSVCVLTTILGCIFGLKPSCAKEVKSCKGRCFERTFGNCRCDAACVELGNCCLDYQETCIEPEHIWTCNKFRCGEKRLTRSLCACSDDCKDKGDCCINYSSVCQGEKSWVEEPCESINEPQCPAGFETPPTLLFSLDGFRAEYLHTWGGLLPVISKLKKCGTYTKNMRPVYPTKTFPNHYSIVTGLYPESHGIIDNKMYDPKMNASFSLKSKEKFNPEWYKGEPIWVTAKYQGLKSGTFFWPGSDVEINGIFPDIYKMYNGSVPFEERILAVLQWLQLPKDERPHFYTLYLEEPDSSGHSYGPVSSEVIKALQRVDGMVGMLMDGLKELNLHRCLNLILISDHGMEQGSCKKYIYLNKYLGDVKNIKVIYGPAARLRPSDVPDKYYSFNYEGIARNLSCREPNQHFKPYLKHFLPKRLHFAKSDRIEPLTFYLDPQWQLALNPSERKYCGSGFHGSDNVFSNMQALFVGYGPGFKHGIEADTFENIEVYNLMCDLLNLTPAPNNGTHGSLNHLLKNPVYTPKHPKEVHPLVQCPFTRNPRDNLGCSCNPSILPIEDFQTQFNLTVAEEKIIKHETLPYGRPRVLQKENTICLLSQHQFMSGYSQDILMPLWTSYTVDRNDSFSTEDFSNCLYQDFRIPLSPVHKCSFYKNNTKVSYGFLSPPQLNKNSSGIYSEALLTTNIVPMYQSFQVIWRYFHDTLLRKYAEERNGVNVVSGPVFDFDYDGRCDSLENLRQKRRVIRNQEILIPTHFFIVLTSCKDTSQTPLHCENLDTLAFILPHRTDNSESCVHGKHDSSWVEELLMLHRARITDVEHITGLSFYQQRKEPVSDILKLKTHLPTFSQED
Test: Drug metabolism assessed as human NPP1-mediated compound hydrolysis at 100 uM after 2 hrs by HPLC analysis relative to UDP-treated control
Format: ADME
Conditions: human NPP1 enzyme, read-out: Drug metabolism
Task for the reader: assign each of the following molecules its reported metabolised at 2 h, 100 µM.
Numbers only, in %.

O=c1[nH]c(=O)n([C@@H]2O[C@H](COP(=O)(O)OS(=O)(=O)O)[C@@H](O)[C@H]2O)cc1F    18.9
O=c1ccn([C@@H]2O[C@H](COP(=O)(O)OS(=O)(=O)O)[C@@H](O)[C@H]2O)c(=O)[nH]1    27.9
COc1cn([C@@H]2O[C@H](COP(=O)(O)CS(=O)(=O)O)[C@@H](O)[C@H]2O)c(=O)[nH]c1=O    21.6

Next, consider the following molecule.
Returns the measured metabolised at 2 h, 100 µM for the input molecule. Input: O=c1ccn([C@@H]2O[C@H](COP(=O)(O)CS(=O)(=O)O)[C@@H](O)[C@H]2O)c(=O)[nH]1
9.5

---

Target: P2Y purinoceptor 6 (Homo sapiens, UniProt Q15077)
Sequence (Q15077 whole entry): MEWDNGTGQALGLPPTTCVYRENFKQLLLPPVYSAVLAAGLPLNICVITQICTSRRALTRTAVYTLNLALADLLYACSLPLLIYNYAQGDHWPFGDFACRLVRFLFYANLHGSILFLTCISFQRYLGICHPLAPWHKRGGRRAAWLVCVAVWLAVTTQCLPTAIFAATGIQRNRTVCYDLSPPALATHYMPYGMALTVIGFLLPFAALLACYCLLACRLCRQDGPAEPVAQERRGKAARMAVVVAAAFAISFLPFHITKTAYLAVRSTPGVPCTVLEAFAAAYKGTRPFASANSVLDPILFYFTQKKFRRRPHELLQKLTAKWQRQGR
Assay: Antagonist activity at human recombinant P2Y6 receptor expressed in human 1321N1 cells assessed as inhibition of UDP-induced increase in intracellular calcium level at 100 uM incubated for 2 mins prior to UDP induction by fluo-4 dye-based spectrofluorometric analysis
Assay type: functional, cell-based
Active and inactive are the calls of the source. The rule behind the calls is not given here.
outcome_measure: inhibition

Illustrative cases are given below, each with its answer.
COc1cn([C@@H]2O[C@H](COP(=O)(O)C(F)(F)P(=O)(O)O)[C@@H](O)[C@H]2O)c(=O)[nH]c1=O    40%
CC(C)c1cn([C@@H]2O[C@H](COP(=O)(O)CP(=O)(O)O)[C@@H](O)[C@H]2O)c(=O)[nH]c1=O    24%
O=c1[nH]c(=O)n([C@@H]2O[C@H](COP(=O)(O)C(F)(F)P(=O)(O)O)[C@@H](O)[C@H]2O)cc1F    Active
COc1cn([C@@H]2O[C@H](COP(=O)(O)CS(=O)(=O)O)[C@@H](O)[C@H]2O)c(=O)[nH]c1=O    inactive
O=c1ccn([C@@H]2O[C@H](COP(=O)(O)CS(=O)(=O)O)[C@@H](O)[C@H]2O)c(=O)[nH]1    inactive

I need inhibition for every entry listed below, if you could help.
1. O=c1[nH]c(=O)n([C@@H]2O[C@H](COP(=O)(O)CP(=O)(O)O)[C@@H](O)[C@H]2O)cc1-c1ccccc1
2. O=c1ccn([C@@H]2O[C@H](COP(=O)(O)OS(=O)(=O)O)[C@@H](O)[C@H]2O)c(=O)[nH]1
3. COc1cn([C@@H]2O[C@H](COP(=O)(O)C(Cl)(Cl)P(=O)(O)O)[C@@H](O)[C@H]2O)c(=O)[nH]c1=O
4. Cn1c(=O)ccn([C@@H]2O[C@H](COP(=O)(O)CP(=O)(O)O)[C@@H](O)[C@H]2O)c1=O

1: inactive; 2: Active; 3: Active; 4: inactive
